OD (450 nm) value reference
- target system: extracellular domain of the FGFR2b protein (NP_075259.4) (UniProt P21802)
- Sequence (P21802 other isoform, or with tags, fused parts or gaps): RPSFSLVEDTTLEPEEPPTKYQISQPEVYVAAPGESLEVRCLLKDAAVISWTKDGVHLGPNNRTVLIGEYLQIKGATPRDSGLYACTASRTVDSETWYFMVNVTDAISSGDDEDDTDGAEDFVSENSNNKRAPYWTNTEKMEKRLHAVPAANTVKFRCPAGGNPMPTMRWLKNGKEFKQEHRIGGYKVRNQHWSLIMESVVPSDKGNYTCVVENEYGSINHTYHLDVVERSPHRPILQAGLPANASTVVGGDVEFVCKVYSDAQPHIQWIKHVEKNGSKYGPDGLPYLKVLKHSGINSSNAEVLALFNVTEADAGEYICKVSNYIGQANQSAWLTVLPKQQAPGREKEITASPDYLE
- test description: phage ELISA
readout label: OD (450 nm) value

[
  {
    "binder": "3C7 scFv displayed on phage (scFv) scFv: EIQLQQSGAELVKPGASVKMSCKASGYIFRNYYIHWVKRTPGQGLEWIGAIYPDNGDTSYNQRFKVKATLTADTSSSTAYMQLSSLTSEDSAVYYCARAFTYWGQGTTLTVSSGGGGSGGGGSGGGGSDIQMIQSPASLSASVGETVTITCGASENIYGALNWYQRKQGKSPQLLIYGATNLADGMSSRFSGSGSGRQYSLKISSLHPDDVATYYCQNVLSTPYTFGGGTKLEIK",
    "experimental result": 2.02
  },
  {
    "binder": "1A3 scFv displayed on phage (scFv) scFv: QVQLQQPGAELVKPGASVKMSCKASGYTFASYNLHWVKQTPGQGLEWIGLIYPENGDTSYNQKFKGKATLTADKSSSTAYIQLSSLTSEDSAVYFCARGGFDYWGQGTTLTVSQGGGGSGGGGSGGGGSDIQMTQSPASLSASVGETVTITCGASENIYGALNWYQRKQGKSPQLLIYGATNLADGMSSRFSGSGSGRQYSLKISSLHPDDVATYYCQNVLSTPYTFGGGTKLEIK",
    "experimental result": 2.67
  },
  {
    "binder": "3E3 scFv displayed on phage (scFv) scFv: QVQLQQPGAVLVKPGASVRMSCKASGYTFPYYNVHWVKRTPGQGLEWIGLIYPDNGDTSYNQKFTGKATLTADTSSSTAYMQLSSLTSEDSAVYYCARGGLDYWGQGTTLTVSAGGGGSGGGGSGGGGSDVQITQSPASLSASVGETVTITCGASENIYGALNWYQRKQGKSPQLLIYGATNLADGMSSRFSGSGSGRQYSLKISSLHPDDVATYYCQNVLSTPYTFGGGTKLEIK",
    "experimental result": 2.28
  }
]
